Molecular target: Mu-type opioid receptor (Homo sapiens)
Sequence (P35372 whole entry): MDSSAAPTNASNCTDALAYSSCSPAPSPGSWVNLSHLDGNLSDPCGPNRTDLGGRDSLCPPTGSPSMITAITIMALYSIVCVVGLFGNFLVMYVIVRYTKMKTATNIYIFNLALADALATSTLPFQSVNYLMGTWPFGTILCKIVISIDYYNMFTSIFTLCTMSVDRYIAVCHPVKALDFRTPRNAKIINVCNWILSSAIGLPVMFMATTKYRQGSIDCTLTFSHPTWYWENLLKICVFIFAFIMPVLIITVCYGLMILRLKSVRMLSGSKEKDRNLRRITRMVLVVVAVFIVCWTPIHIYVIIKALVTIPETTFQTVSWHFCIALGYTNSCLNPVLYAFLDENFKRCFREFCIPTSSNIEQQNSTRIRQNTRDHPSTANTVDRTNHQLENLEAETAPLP
Experiment: Inhibition of mu opioid receptor (unknown origin) expressed in HEK293 cells assessed as inhibition of forskolin-stimulated […] preincubated for 30 mins followed by forskolin-stimulation and measured after 60 mins
Type: cell-based
QUANTITY_MEASURED: EC50

Q: GET /values?readout=EC50&item= C[C@@H](Cc1ccsc1)NC(=O)NC[C@H](Cc1cccc2ccccc12)N(C)C
A: 0.456 µM

Q: GET /values?readout=EC50&item= CN(C)[C@H](CNC(=O)NCCc1ccsc1)Cc1ccc2ccccc2c1
A: 0.0524 to 0.243 µM

Q: GET /values?readout=EC50&item= CN(C)[C@H](CNC(=O)NCCc1ccsc1)Cc1cccc2ccccc12
A: 0.203 µM

Q: GET /values?readout=EC50&item= C[C@H](Cc1ccsc1)NC(=O)NC[C@H](Cc1ccc2ccccc2c1)N(C)C
A: 0.0524 to 0.0911 µM

---
Q: GET /values?readout=EC50&item= C[C@@H](Cc1ccsc1)NC(=O)NC[C@H](Cc1ccc2ccccc2c1)N(C)C
A: 0.0524 to 0.0911 µM

Q: GET /values?readout=EC50&item= CN(C)[C@H](CNC(=O)NCCc1cccs1)Cc1cccc2ccccc12
A: 0.0524 to 0.0911 µM
